# test-name: Binding affinity to 5'FAM-labeled Precursor microRNA-372 (unknown origin) assessed as dissociation constant incubated for 4 hrs in presence of tRNA by fluorescence-based assay
Overview of recorded Kd for various molecules
Your answer is read as µM, so omit the unit and give the number.

Examples with answers:
>>> endpoint_result("NC[C@@H]1O[C@H](O[C@H]2[C@@H](O)[C@H](O[C@@H]3[C@@H](O)[C@H](N)C[C@H](N)[C@H]3O[C@H]3O[C@H](CN)[C@@H](O)[C@H](O)[C@H]3N)O[C@@H]2Cn2cc(Cn3cnc(-c4cccc(NC(=O)c5ccccc5)c4)c3)nn2)[C@H](N)[C@@H](O)[C@@H]1O")
0.0208
>>> endpoint_result("N[C@@H]1C[C@H](N)[C@@H](OCCn2cc(CCC(=O)NCC(=O)Nc3nc(-c4ccccc4)cs3)nn2)[C@H](O)[C@H]1O")
8.56
>>> endpoint_result("CCCCNC(=O)Nc1cccc(-c2cn(Cc3cn(CCO[C@H]4[C@H](O)[C@@H](O)[C@H](N)C[C@@H]4N)nn3)cn2)c1")
3.65
>>> endpoint_result("Nc1cccc(-c2cn(Cc3cn(CCO[C@H]4[C@H](O)[C@@H](O)[C@H](N)C[C@@H]4N)nn3)cn2)c1")
3.92

Now for a further molecule.
For record `N[C@@H]1C[C@H](N)[C@@H](OCCn2cc(Cn3cnc(-c4cccc(NC(=O)c5ccccc5)c4)c3)nn2)[C@H](O)[C@H]1O` the listed Kd is 2.64

* * *

# test-name: Binding affinity to 5'FAM-labeled Precursor microRNA-372 (unknown origin) assessed as dissociation constant incubated for 4 hrs by fluorescence-based assay
observation-type: Kd (µM)
Your answer is read as µM, so omit the unit and give the number.

Examples with answers:
>>> endpoint_result("Nc1cccc(-c2cn(Cc3cn(CCO[C@H]4[C@H](O)[C@@H](O)[C@H](N)C[C@@H]4N)nn3)cn2)c1")
3.53
>>> endpoint_result("CCCCNC(=O)Nc1cccc(-c2cn(Cc3cn(C[C@H]4O[C@@H](O[C@@H]5[C@@H](O)[C@H](N)C[C@H](N)[C@H]5O[C@H]5O[C@H](CN)[C@@H](O)[C@H](O)[C@H]5N)[C@H](O)[C@@H]4O[C@H]4O[C@@H](CN)[C@@H](O)[C@H](O)[C@H]4N)nn3)cn2)c1")
0.0461
>>> endpoint_result("Nc1ccn(Cc2cn(CCO[C@H]3[C@H](O)[C@@H](O)[C@H](N)C[C@@H]3N)nn2)c(=O)n1")
101
>>> endpoint_result("N[C@@H]1C[C@H](N)[C@@H](OCCn2cc(Cn3ccc(O)nc3=O)nn2)[C@H](O)[C@H]1O")
17.1

For record `N[C@@H]1C[C@H](N)[C@@H](OCCn2cc(CCC(=O)NCC(=O)Nc3nc(-c4ccccc4)cs3)nn2)[C@H](O)[C@H]1O` the listed Kd is 5.13

* * *

# test-name: Binding affinity to 5'FAM-labeled Precursor microRNA-372 (unknown origin) assessed as dissociation constant incubated for 4 hrs in presence of tRNA by fluorescence-based assay
Overview of recorded Kd for various compounds
Your answer is read as µM, so omit the unit and give the number.

>>> endpoint_result("CCCCNC(=O)Nc1cccc(-c2cn(Cc3cn(C[C@H]4O[C@@H](O[C@@H]5[C@@H](O)[C@H](N)C[C@H](N)[C@H]5O[C@H]5O[C@H](CN)[C@@H](O)[C@H](O)[C@H]5N)[C@H](O)[C@@H]4O[C@H]4O[C@@H](CN)[C@@H](O)[C@H](O)[C@H]4N)nn3)cn2)c1")
0.0164

For record `N[C@@H]1C[C@H](N)[C@@H](OCCn2cc(Cn3cnc(-c4cccc(NC(=O)c5ccc6ccccc6c5)c4)c3)nn2)[C@H](O)[C@H]1O` the listed Kd is 8.51

* * *

# test-name: Selectivity ratio of Kd for binding affinity to 5'FAM-labeled Precursor microRNA-372 (unknown origin) in presence of tRNA to Kd for binding affinity to 5'FAM-labeled Precursor microRNA-372 (unknown origin)
observation-type: Selectivity ratio

Examples with answers:
>>> endpoint_result("Nc1cccc(-c2cn(Cc3cn(CCO[C@H]4[C@H](O)[C@@H](O)[C@H](N)C[C@@H]4N)nn3)cn2)c1")
1.1
>>> endpoint_result("N[C@@H]1C[C@H](N)[C@@H](OCCn2cc(Cn3cnc(-c4cccc(NC(=O)c5ccc6ccccc6c5)c4)c3)nn2)[C@H](O)[C@H]1O")
1.3
>>> endpoint_result("N[C@@H]1C[C@H](N)[C@@H](OCCn2cc(CCC(=O)NCC(=O)Nc3nc(-c4ccccc4)cs3)nn2)[C@H](O)[C@H]1O")
1.7

For record `CCCCNC(=O)Nc1cccc(-c2cn(Cc3cn(C[C@H]4O[C@@H](O[C@@H]5[C@@H](O)[C@H](N)C[C@H](N)[C@H]5O[C@H]5O[C@H](CN)[C@@H](O)[C@H](O)[C@H]5N)[C@H](O)[C@@H]4O[C@H]4O[C@@H](CN)[C@@H](O)[C@H](O)[C@H]4N)nn3)cn2)c1` the listed Selectivity ratio is 1.1

For record `CCCCNC(=O)Nc1cccc(-c2cn(Cc3cn(CCO[C@H]4[C@H](O)[C@@H](O)[C@H](N)C[C@@H]4N)nn3)cn2)c1` the listed Selectivity ratio is 2.2

For record `NC[C@@H]1O[C@H](O[C@H]2[C@@H](O)[C@H](O[C@@H]3[C@@H](O)[C@H](N)C[C@H](N)[C@H]3O[C@H]3O[C@H](CN)[C@@H](O)[C@H](O)[C@H]3N)O[C@@H]2Cn2cc(Cn3cnc(-c4cccc(NC(=O)c5ccccc5)c4)c3)nn2)[C@H](N)[C@@H](O)[C@@H]1O` the listed Selectivity ratio is 1.1

* * *

# test-name: Binding affinity to 5'FAM-labeled Precursor microRNA-372 (unknown origin) assessed as dissociation constant incubated for 4 hrs in presence of DNA by fluorescence-based assay
observation-type: Kd (µM)
Your answer is read as µM, so omit the unit and give the number.

>>> endpoint_result("NC[C@@H]1O[C@H](O[C@H]2[C@@H](O)[C@H](O[C@@H]3[C@@H](O)[C@H](N)C[C@H](N)[C@H]3O[C@H]3O[C@H](CN)[C@@H](O)[C@H](O)[C@H]3N)O[C@@H]2Cn2cc(Cn3cnc(-c4cccc(NC(=O)c5ccccc5)c4)c3)nn2)[C@H](N)[C@@H](O)[C@@H]1O")
0.0244
>>> endpoint_result("N[C@@H]1C[C@H](N)[C@@H](OCCn2cc(Cn3cnc(-c4cccc(NC(=O)c5ccc6ccccc6c5)c4)c3)nn2)[C@H](O)[C@H]1O")
9.02
>>> endpoint_result("Nc1cccc(-c2cn(Cc3cn(CCO[C@H]4[C@H](O)[C@@H](O)[C@H](N)C[C@@H]4N)nn3)cn2)c1")
4.27
>>> endpoint_result("CCCCNC(=O)Nc1cccc(-c2cn(Cc3cn(C[C@H]4O[C@@H](O[C@@H]5[C@@H](O)[C@H](N)C[C@H](N)[C@H]5O[C@H]5O[C@H](CN)[C@@H](O)[C@H](O)[C@H]5N)[C@H](O)[C@@H]4O[C@H]4O[C@@H](CN)[C@@H](O)[C@H](O)[C@H]4N)nn3)cn2)c1")
0.0222
>>> endpoint_result("CCCCNC(=O)Nc1cccc(-c2cn(Cc3cn(CCO[C@H]4[C@H](O)[C@@H](O)[C@H](N)C[C@@H]4N)nn3)cn2)c1")
2.11
>>> endpoint_result("Nc1ncnc2c1ncn2Cc1cn(CCO[C@H]2[C@H](O)[C@@H](O)[C@H](N)C[C@@H]2N)nn1")
47.1

For record `N[C@@H]1C[C@H](N)[C@@H](OCCn2cc(Cn3cnc(-c4cccc(NC(=O)c5ccccc5)c4)c3)nn2)[C@H](O)[C@H]1O` the listed Kd is 2.96

For record `N[C@@H]1C[C@H](N)[C@@H](OCCn2cc(CCC(=O)NCC(=O)Nc3nc(-c4ccccc4)cs3)nn2)[C@H](O)[C@H]1O` the listed Kd is 11

* * *

# test-name: Binding affinity to 5'FAM-labeled Precursor microRNA-372 (unknown origin) assessed as dissociation constant incubated for 4 hrs by fluorescence-based assay
observation-type: Kd (µM)
Your answer is read as µM, so omit the unit and give the number.

Examples with answers:
>>> endpoint_result("Nc1ncnc2c1ncn2Cc1cn(CCO[C@H]2[C@H](O)[C@@H](O)[C@H](N)C[C@@H]2N)nn1")
11.1
>>> endpoint_result("N[C@@H]1C[C@H](N)[C@@H](OCCn2cc(Cn3cnc(-c4cccc(NC(=O)c5ccccc5)c4)c3)nn2)[C@H](O)[C@H]1O")
0.627
>>> endpoint_result("N[C@@H]1C[C@H](N)[C@@H](OCCn2cc(Cn3cnc(-c4cccc(NC(=O)c5ccc6ccccc6c5)c4)c3)nn2)[C@H](O)[C@H]1O")
6.78
>>> endpoint_result("CCCCNC(=O)Nc1cccc(-c2cn(Cc3cn(CCO[C@H]4[C@H](O)[C@@H](O)[C@H](N)C[C@@H]4N)nn3)cn2)c1")
1.62

Now for a further molecule.
For record `NC[C@@H]1O[C@H](O[C@H]2[C@@H](O)[C@H](O[C@@H]3[C@@H](O)[C@H](N)C[C@H](N)[C@H]3O[C@H]3O[C@H](CN)[C@@H](O)[C@H](O)[C@H]3N)O[C@@H]2Cn2cc(Cn3cnc(-c4cccc(NC(=O)c5ccccc5)c4)c3)nn2)[C@H](N)[C@@H](O)[C@@H]1O` the listed Kd is 0.0189

These data points were gathered from ChEMBL document CHEMBL5107964.
